These data points were gathered from PubChem BioAssay (NCI).

System: NCI-H226 lung
Measurement Notes: NCI-60 one-dose screen, 48 h
Assay Conditions: 10 µM unless noted
Compounds without any hit were thinned out: in the full panel of roughly 83,000, 20% have a hit. Activity calls are given as the source filed them. How the source made its calls: active means growth percent below 10; inactive means the rest.
Outcome codes: active, inactive

[[record]]
compound = "O=[N+]([O-])c1ccc(Oc2ccc(-c3ccccc3)cc2)cc1"
assigned_class = "inactive"

[[record]]
compound = "COc1cc(N=Nc2cc(S(=O)(=O)O)cc3cc(S(=O)(=O)O)cc(O)c23)c(C)cc1N=Nc1c(S(=O)(=O)O)cc2cc(Nc3ccccc3)ccc2c1O"
assigned_class = "inactive"

[[record]]
compound = "COc1ccc(/C=C(/C(=O)N2CCN(Cc3ccccc3)CC2)c2cc(OC)c(OC)c(OC)c2)cc1O"
assigned_class = "inactive"

[[record]]
compound = "Cc1cc(C)c2nc(Nc3nc(C)c(C)c(=O)[nH]3)nc(C)c2c1"
assigned_class = "active"

[[record]]
compound = "Cc1c(O)c(=O)ccn1-c1nc2ccccc2s1"
assigned_class = "inactive"

[[record]]
compound = "COC(=O)/C=C/c1cc(OC(C)=O)c2c(c1)C(C(=O)OC)C(c1ccc(OC(C)=O)c(OC(C)=O)c1)O2 (stereo not drawn)"
assigned_class = "inactive"

[[record]]
compound = "O=C1Nc2ccc(Cl)cc2/C1=N/c1nc(-c2ccc(F)cc2)cs1"
assigned_class = "inactive"

[[record]]
compound = "O=c1[nH]nc(-c2ccccc2)c2sc(NC(=S)Nc3ccc(Cl)cc3)nc12"
assigned_class = "inactive"

[[record]]
compound = "Cc1ccn2c3c(c(C(=O)O)c2c1)C(=O)c1ccccc1C3=O"
assigned_class = "inactive"

[[record]]
compound = "COc1ccc(Sc2[nH]c(C(C)=O)c3ccccc23)cc1"
assigned_class = "inactive"

[[record]]
compound = "Cc1cc(C)nc(NS(=O)(=O)c2ccc(Nc3ccc4c5c(n(CCCN(C)C)c(=O)c4c3)-c3ccccc3C5=O)cc2)n1"
assigned_class = "inactive"

[[record]]
compound = "NC(=O)c1ccc2nc3c(n2c1)C(=O)C(=O)c1ccccc1-3"
assigned_class = "active"

[[record]]
compound = "C=CCn1c(SCC(=O)Nc2ccc(C(=O)/C=C/c3cc(OC)c(OC)c(OC)c3)cc2)nnc1-c1ccccc1"
assigned_class = "inactive"

[[record]]
compound = "COc1ccc2c(c1)OC13Oc4cc(OC)ccc4C=C1CCCCC3=C2"
assigned_class = "inactive"

[[record]]
compound = "Nc1c(C(=O)c2ccccc2)sc2nc(-c3cc4ccccc4o3)cc(-c3ccc(Cl)cc3)c12"
assigned_class = "inactive"

[[record]]
compound = "CC1(C)Cc2c(Br)c(Br)c(Br)c(OCC(O)CN3CCOCC3)c2O1 (stereo not drawn)"
assigned_class = "inactive"

[[record]]
compound = "Cc1ccc(C2CC(c3ccc(Nc4nc(NCCO)nc(NCCO)n4)cc3)=NN2c2ccc(Cl)cc2)cc1 (stereo not drawn)"
assigned_class = "inactive"

[[record]]
compound = "CC(/C=C/c1ccccc1)=N/NC(=O)c1ccncc1"
assigned_class = "inactive"

[[record]]
compound = "O=C(/C(=C/c1ccc([N+](=O)[O-])cc1)SCc1ccc(Cl)cc1)c1ccc(F)cc1"
assigned_class = "inactive"

[[record]]
compound = "COc1cc(NCC(=O)Nc2cc(Nc3cccc(C(F)(F)F)c3)ncn2)c(Cl)c(OC)c1Cl"
assigned_class = "inactive"

[[record]]
compound = "C=CCn1c(SCC(=O)Nc2ccc(C(=O)/C=C/c3cc(OC)c(OC)c(OC)c3)cc2)nnc1-c1ccc(Cl)cc1"
assigned_class = "active"

[[record]]
compound = "Cn1cc(-c2ccc3c(c2)ncn3-c2ccc(CC(=O)Nc3cc(C(C)(C)C)on3)cc2)cn1"
assigned_class = "inactive"

[[record]]
compound = "O=C1Nc2ccccc2C12C=C(c1ccccc1)Nc1c2c(-c2ccccc2)nn1-c1ccccc1 (stereo not drawn)"
assigned_class = "inactive"

[[record]]
compound = "C=C1C(=O)O[C@H]2[C@H]1CCC(/C=N/c1ncc(Br)cc1N)=C\\CC[C@@]1(C)O[C@@H]21"
assigned_class = "inactive"

[[record]]
compound = "Nc1c(C(=O)Nc2ccccc2)sc2nc3c(cc12)CN(C(=O)OCc1ccccc1)CC3"
assigned_class = "inactive"

[[record]]
compound = "N#Cc1ccc(N2Cc3cc(Cl)ccc3OC3=C2C(=O)N(Cc2ccc(F)cc2)C3=O)cc1"
assigned_class = "inactive"

[[record]]
compound = "N#CC1(C#N)C2=C(CCCC2)NC(c2c(F)cccc2Cl)C1(C#N)C#N (stereo not drawn)"
assigned_class = "inactive"

[[record]]
compound = "NCCN1CCNCC1"
assigned_class = "inactive"

[[record]]
compound = "O=C1CC23OC4ON=C(Br)C4C2C(O)c2ccccc2N13 (stereo not drawn)"
assigned_class = "inactive"

[[record]]
compound = "COc1ccc2c(c1)Oc1nc(N)c(C#N)c(N)c1C2Sc1ccc(O)cc1 (stereo not drawn)"
assigned_class = "inactive"

[[record]]
compound = "Oc1ccccc1-c1nc2c3ccccc3c3ccccc3c2o1"
assigned_class = "inactive"

[[record]]
compound = "CCOC(=O)c1sc(/N=C2\\NC(=O)/C(=C/c3ccc(N4CCN(C)CC4)cc3)S2)nc1C"
assigned_class = "inactive"

[[record]]
compound = "Cc1nccc2c3ccc(OCc4cn(-c5ccc(Br)cc5)nn4)cc3n(CC(C)C)c12"
assigned_class = "inactive"

[[record]]
compound = "COc1ccc2[nH]c3nc4cnccc4cc3c2c1"
assigned_class = "inactive"

[[record]]
compound = "O=C(O)c1cc(N=Nc2ccc(-c3ccc(N=Nc4c(S(=O)(=O)O)cc5ccc(Nc6ccccc6)cc5c4O)cc3)cc2)ccc1O"
assigned_class = "inactive"

[[record]]
compound = "C=C(C)[C@@H]1CC[C@]2(C(=O)OCCOCCOCC[P+](c3ccccc3)(c3ccccc3)c3ccccc3)CC[C@]3(C)[C@H](CC[C@@H]4[C@@]5(C)CC[C@H](OC(C)=O)C(C)(C)[C@@H]5CC[C@]43C)[C@@H]12"
assigned_class = "active"

[[record]]
compound = "CCOCc1cc(C(C)(C)C)ccc1O"
assigned_class = "inactive"

[[record]]
compound = "COc1ccc2cc(/C=C3\\N=C(c4cc(OC)c(OC)c(OC)c4)OC3=O)c(OC)nc2c1"
assigned_class = "inactive"


====

Tested on: SK-MEL-5 melanoma
Measurement Notes: NCI-60 one-dose screen, 48 h
Assay Conditions: 10 µM unless noted
This is part of a sample that, as a whole, favours compounds with a hit. Of some 83,000 tested, about 20% had one in any assay. Calls of active or inactive are those of the source. Rule for the calls: active = growth percent below 10; inactive = the rest.
Outcome codes: active, inactive

[[record]]
compound = "COc1ccccc1-c1ccc2nc(NC(=O)Nc3cc(C(F)(F)F)cc(C(F)(F)F)c3)sc2c1"
assigned_class = "active"

[[record]]
compound = "Nc1ccc(C2=NN(C(=O)c3cc(-c4ccc(Cl)cc4)nc4ccccc34)C(c3ccccc3)C2)cc1 (stereo not drawn)"
assigned_class = "inactive"

[[record]]
compound = "COc1ccc(-c2cs/c(=N\\N=C\\c3ccc(O)cc3O)n2/N=C/c2ccc(O)cc2O)cc1"
assigned_class = "active"

[[record]]
compound = "CCOc1ccccc1C(=O)/C=C/c1cc2ccccc2[nH]c1=O"
assigned_class = "active"

[[record]]
compound = "C=CCn1c(SCC(=O)Nc2ccc(C(=O)/C=C/c3cc(OC)c(OC)c(OC)c3)cc2)nnc1-c1ccc(Cl)cc1"
assigned_class = "active"

[[record]]
compound = "N#Cc1ccc(Oc2ccc3ccc(=O)oc3c2)cc1"
assigned_class = "inactive"

[[record]]
compound = "COCCc1n(Cc2ccc3ccccc3c2)c2ccccc2[n+]1Cc1ccc2ccccc2c1"
assigned_class = "active"

[[record]]
compound = "COc1cc2cc(c1Cl)N(C)C(=O)C[C@H](OC(=O)[C@H](C)N(C)C(=O)CCS)C[C@]1(C)O[C@H]1[C@H](C)[C@@H]1C[C@@](O)(NC(=O)O1)[C@H](OC)/C=C/C=C(\\C)C2"
assigned_class = "active"


====

System: PC-3 prostate
Measurement Notes: NCI-60 one-dose screen, 48 h (100 = growth as untreated, 0 = no growth, -100 = all killed)
Assay Conditions: 10 µM unless noted
About 83,000 compounds went through this panel and 20% of them were active in at least one assay; those are over-represented in the sample as a whole.
The following compounds are listed with their measured growth values.
Endpoint Label: growth (%)

[[record]]
compound = "CN1CC=C(c2cc(NC(=O)Nc3ccc(Oc4ccnc(NC(=O)C5CC5)c4)c(F)c3)cc(C(F)(F)F)c2)CC1"
measurement_target = "PC-3 prostate"
endpoint_label = "growth"
unit_symbol = "%"
result = 3.71

[[record]]
compound = "COc1c(O)cc2oc3cc(O[C@@H]4OC(C)[C@@H](O)[C@H](O)C4O)c(CC=C(C)C)c(O)c3c(=O)c2c1CC=C(C)C (some centres undefined)"
measurement_target = "PC-3 prostate"
endpoint_label = "growth"
unit_symbol = "%"
result = 74.9

[[record]]
compound = "CCOC(=O)NC(Cc1ccccc1)c1ccccc1 (centres undefined)"
measurement_target = "PC-3 prostate"
endpoint_label = "growth"
unit_symbol = "%"
result = 94.7

[[record]]
compound = "COC(=O)c1oc2c(C(=O)/C=C/c3ccc(OC)cc3)c(OCCCN3CCCCC3)ccc2c1C"
measurement_target = "PC-3 prostate"
endpoint_label = "growth"
unit_symbol = "%"
result = -2.46

[[record]]
compound = "c1ccc(-c2n(Cc3ccc4ccccc4n3)cc[n+]2Cc2ccc3ccccc3n2)cc1"
measurement_target = "PC-3 prostate"
endpoint_label = "growth"
unit_symbol = "%"
result = 27

[[record]]
compound = "C=CCn1c(SCC(=O)Nc2ccc(C(=O)/C=C/c3cc(OC)c(OC)c(OC)c3)cc2)nnc1-c1ccc(Cl)cc1"
measurement_target = "PC-3 prostate"
endpoint_label = "growth"
unit_symbol = "%"
result = 28.3

[[record]]
compound = "C(=C\\c1cn(-c2ccccc2)nc1-c1ccccc1)/c1nnc(-c2c[nH]c3ccccc23)o1"
measurement_target = "PC-3 prostate"
endpoint_label = "growth"
unit_symbol = "%"
result = 26

[[record]]
compound = "CC(C)Cc1cc(CNC(=O)C2[C@H]3CN(C(=O)c4ccccc4)C[C@@H]23)nn1-c1ccccc1 (some centres undefined)"
measurement_target = "PC-3 prostate"
endpoint_label = "growth"
unit_symbol = "%"
result = 90.8

[[record]]
compound = "O=C(O)CCNC1CCCCC1"
measurement_target = "PC-3 prostate"
endpoint_label = "growth"
unit_symbol = "%"
result = 94.8

